Where do the numbers come from? From ChEMBL document CHEMBL1201862.

Target Of Assay: Replicative DNA helicase DnaB (Mycobacterium tuberculosis, UniProt P9WMR3)
Sequence (P9WMR3 whole entry): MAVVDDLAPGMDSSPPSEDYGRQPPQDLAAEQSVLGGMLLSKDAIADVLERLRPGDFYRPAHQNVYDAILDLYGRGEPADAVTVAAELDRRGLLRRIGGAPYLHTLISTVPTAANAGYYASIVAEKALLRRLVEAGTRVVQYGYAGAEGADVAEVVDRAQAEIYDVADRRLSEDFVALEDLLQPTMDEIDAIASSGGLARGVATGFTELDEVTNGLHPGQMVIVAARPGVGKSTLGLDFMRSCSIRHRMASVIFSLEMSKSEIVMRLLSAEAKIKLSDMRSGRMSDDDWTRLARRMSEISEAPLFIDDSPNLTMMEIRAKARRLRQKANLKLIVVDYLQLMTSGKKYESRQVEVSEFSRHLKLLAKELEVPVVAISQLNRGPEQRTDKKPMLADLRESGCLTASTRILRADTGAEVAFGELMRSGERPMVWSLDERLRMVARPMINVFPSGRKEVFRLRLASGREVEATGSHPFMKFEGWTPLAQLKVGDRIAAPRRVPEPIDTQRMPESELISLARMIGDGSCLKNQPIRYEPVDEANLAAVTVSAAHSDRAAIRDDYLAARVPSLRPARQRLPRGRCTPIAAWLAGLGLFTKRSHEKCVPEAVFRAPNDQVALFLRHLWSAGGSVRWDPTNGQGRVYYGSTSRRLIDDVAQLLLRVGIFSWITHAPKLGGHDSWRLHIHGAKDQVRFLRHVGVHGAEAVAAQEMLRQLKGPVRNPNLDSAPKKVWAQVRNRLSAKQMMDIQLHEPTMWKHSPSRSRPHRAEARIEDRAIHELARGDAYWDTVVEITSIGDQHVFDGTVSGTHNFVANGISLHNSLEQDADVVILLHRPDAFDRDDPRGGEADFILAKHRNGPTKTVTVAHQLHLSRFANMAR
Protocol Notes: DnaB intein splicing inhibitors, dose response, biochemical, cell-free fluorescence (AID 449749)
Type: functional
Calls of active or inactive are those of the source. Rule as the data show it: actives have a measured AC50 and inactives only a lower limit.
Reported Metric: AC50

The following compounds have reported results that may help.
[
  {
    "Compound": "Cc1c(Cl)cccc1N=C([S-])/C(=C(\\O)c1ccc(Cl)s1)[n+]1ccccc1",
    "AC50": "19.8 µM (active)"
  },
  {
    "Compound": "CC(CCn1cccn1)NC(=O)CCc1nnc(CCc2ccccc2)o1 (stereo unspecified)",
    "AC50": "> 380 µM (inactive)"
  },
  {
    "Compound": "Cc1cc(C(=O)CCl)c(C)n1CCc1ccc(Cl)cc1",
    "AC50": "8.7 µM (active)"
  },
  {
    "Compound": "COc1ccc(N2C(=O)/C(=C\\c3ccco3)N=C2SCC(=O)NC(C)(C)C)cc1Cl",
    "AC50": "> 380 µM (inactive)"
  },
  {
    "Compound": "O=C(CCl)Nc1c2c(nn1-c1ccccc1)CSC2",
    "AC50": "60.5 µM (active)"
  }
]

// next entry
*Q* Which measured AC50 value corresponds to COCc1n[nH]c2c1C(c1ccc(OC)cc1)C(C#N)=C(N)O2 (stereo unspecified) ?
*A* 25.8 µM (active)
